Target: T1, rKv4.2N (Rattus norvegicus, UniProt Q63881)
T1 construct: the N-terminal domains of Kv4.3, Kv4.2 were expressed as “baits” (Kv4.3N, Kv4.2N, respectively); expressed in transfected cells; host or cells: yeast HF7c (baits), mated with Y187 (fish)
T1 sequence (Q63881 1-184 limits assumed): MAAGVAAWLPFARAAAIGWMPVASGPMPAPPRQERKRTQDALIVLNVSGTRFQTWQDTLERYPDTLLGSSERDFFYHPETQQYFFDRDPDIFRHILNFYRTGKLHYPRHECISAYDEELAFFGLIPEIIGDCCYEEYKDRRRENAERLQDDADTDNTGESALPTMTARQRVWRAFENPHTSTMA
Test: Yeast two-hybrid binding and specificity test, Kv4.2 N-terminal bait
measurement.label: binding to rKv4.2N in yeast two-hybrid assay

molecule	result
Rat 7q: identical to RAB2 (rat RAS-related protein) (protein) MAYAYLFKYIIIGDTGVGKSCLLLQFTDKRFQPVHDLTIGVEFGARMITIDGKQIKLQIWDTAGQESFRSITRSYYRGAAGALLVYDITRRDTFNHLTTWLEDARQHSNSNMVIMLIGNKSDLESRREVKKEEGEAFAREHGLIFMETSAKTASNVEEAFINTAKEIYEKIQEGVFDINNEANGIKIGPQHAATNASHGGNQGGQQAGGGCC	binds
Rat 19r: identical to Rat phosphatidylinositol (PTDINS) transfer protein alpha (protein) MVLLKEYRVILPVSVDEYQVGQLYSVAEASKNETGGGEGVEVLVNEPYEKDDGEKGQYTHKIYHLQSKVPTFVRMLAPEGALNIHEKAWNAYPYCRTVITNEYMKEDFLIKIETWHKPDLGTQENVHKLEPEAWKHVEAIYIDIADRSQVLSKDYKAEEDPAKFKSIKTGRGPLGPNWKQELVNQKDCPYMCAYKLVTVKFKWWGLQNKVENFIHKQEKRLFTNFHRQLFCWLDKWVDLTMDDIRRMEEETKRQLDEMRQKDPVKGMTADD	binds
